- measuredTarget: Ba/F3 EGFR Del19/T790M mutants (Homo sapiens, UniProt P00533, T790M, cells depend on it, form not given)
- Sequence (P00533 with tags, fused parts or gaps DEL746-750/T790M, form open): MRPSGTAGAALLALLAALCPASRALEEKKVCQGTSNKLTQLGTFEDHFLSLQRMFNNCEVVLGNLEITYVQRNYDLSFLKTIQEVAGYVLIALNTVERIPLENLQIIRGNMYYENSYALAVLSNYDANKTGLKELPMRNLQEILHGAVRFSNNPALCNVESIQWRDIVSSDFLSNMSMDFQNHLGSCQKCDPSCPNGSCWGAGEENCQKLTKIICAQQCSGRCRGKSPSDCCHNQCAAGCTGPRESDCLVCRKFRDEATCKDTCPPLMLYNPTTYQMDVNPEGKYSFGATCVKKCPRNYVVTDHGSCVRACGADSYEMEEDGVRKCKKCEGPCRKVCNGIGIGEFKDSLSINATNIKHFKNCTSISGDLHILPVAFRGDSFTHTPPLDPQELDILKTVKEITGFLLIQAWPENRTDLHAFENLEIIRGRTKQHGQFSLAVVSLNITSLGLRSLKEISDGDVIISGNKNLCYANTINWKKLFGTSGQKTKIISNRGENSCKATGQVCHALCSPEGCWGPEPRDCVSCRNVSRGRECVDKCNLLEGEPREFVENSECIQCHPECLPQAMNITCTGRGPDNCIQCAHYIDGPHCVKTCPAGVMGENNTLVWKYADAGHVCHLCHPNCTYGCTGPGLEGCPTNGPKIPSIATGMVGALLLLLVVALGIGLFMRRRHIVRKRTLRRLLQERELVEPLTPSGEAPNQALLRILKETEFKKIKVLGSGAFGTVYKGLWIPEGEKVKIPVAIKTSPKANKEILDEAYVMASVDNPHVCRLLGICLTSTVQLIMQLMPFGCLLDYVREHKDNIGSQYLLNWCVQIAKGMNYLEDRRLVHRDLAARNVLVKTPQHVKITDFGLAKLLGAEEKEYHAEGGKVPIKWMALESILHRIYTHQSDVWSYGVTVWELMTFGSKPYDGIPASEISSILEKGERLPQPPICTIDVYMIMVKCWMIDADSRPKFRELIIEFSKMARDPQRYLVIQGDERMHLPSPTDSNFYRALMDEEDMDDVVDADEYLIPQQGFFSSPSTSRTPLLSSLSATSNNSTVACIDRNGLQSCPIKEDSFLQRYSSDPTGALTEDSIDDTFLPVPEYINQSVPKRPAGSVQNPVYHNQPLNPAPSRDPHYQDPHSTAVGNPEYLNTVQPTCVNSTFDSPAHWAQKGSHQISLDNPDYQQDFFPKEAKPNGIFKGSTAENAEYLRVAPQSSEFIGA
- measurementDescription: CellTiter-Glo cell viability, Ba/F3 EGFR Del19/T790M cells
- Assay type: cell-based, murine
- experimentalSetup: 72 hours, read-out: Ba/F3 EGFR mutant cell (IC50, nM) D/T
reportedEndpoint: GI50

compound=CCc1cc(Nc2ncc(Br)c(Nc3ccc4nccnc4c3N(C)S(C)(=O)=O)n2)c(OC)cc1N1CC2(C1)CN(C(C)C)C2 reportedendpoint=GI50 result="9 nM"
compound="CCc1cc(Nc2ncc(Br)c(Nc3ccc4nccnc4c3N(C)S(C)(=O)=O)n2)c(OC)cc1N1CCC(N2CC3CCC2CN3C)CC1 (stereo not drawn)" reportedendpoint=GI50 result="9 nM"
compound=CCc1cc(Nc2ncc(Cl)c(Nc3ccc4nccnc4c3NS(C)(=O)=O)n2)c(OC)cc1N1CCC(N2CCOCC2)CC1 reportedendpoint=GI50 result="13 nM"
compound=COc1cc(N2CCC(N3CCN(C)CC3)CC2)c(C)cc1Nc1ncc(Cl)c(Nc2ccc3nccnc3c2NS(C)(=O)=O)n1 reportedendpoint=GI50 result="7 nM"
compound=COc1cc(N2CCC(N3CCOCC3)CC2)c(C)cc1Nc1ncc(Cl)c(Nc2ccc3nccnc3c2NS(C)(=O)=O)n1 reportedendpoint=GI50 result="39 nM"
compound=CCc1cc(Nc2ncc(Cl)c(Nc3ccc4c(c3NS(C)(=O)=O)OCCO4)n2)c(OC)cc1N1CCC(N2CCOCC2)CC1 reportedendpoint=GI50 result="8 nM"
